# Percent Effect listing for each entry below
molecular target: Protein translocase subunit SecA (Escherichia coli (strain K12)); experiment: Assay to Identify E. coli SecA ATPase Inhibitors; type: functional; design: scale not given: direction of the effect not stated beside the values; details: 30 µM
Entries with a potency or affinity are not part of this list.
Report as: number unit

Here is how some compounds turned out for Percent Effect.
CCC(C)(C)NC(=O)C1CC(=O)N(CC2CC2)C1 (configuration not stated); -2.71%
O=C(C1CCOCC1)N1C[C@@H]2[C@@H](C1)OCC(=O)N2CC1CC1; -1.53%
COc1cc(C(=O)N(Cc2ccc(F)cc2)C2CC2)cc2c1OCCO2; 0.816%

Could you now look at the following compound, please?
### Prompt Find the measured Percent Effect of CN(Cc1ccco1)Cc1ccccc1CNC(=O)c1ccncc1 and report it.
### Response -4.48%

---

target: Chromo domain-containing protein 1 (Saccharomyces cerevisiae (strain ATCC 204508 / S288c) (Baker's yeast)) (UniProt P32657); assay: ScCHD-1 Enzyme Inhibition Assay; format: functional; set-up: scale not given: in the data most compounds retested in dose-response had high values; details: 30 µM
Sequence (P32657 whole entry, the tested form may be a part): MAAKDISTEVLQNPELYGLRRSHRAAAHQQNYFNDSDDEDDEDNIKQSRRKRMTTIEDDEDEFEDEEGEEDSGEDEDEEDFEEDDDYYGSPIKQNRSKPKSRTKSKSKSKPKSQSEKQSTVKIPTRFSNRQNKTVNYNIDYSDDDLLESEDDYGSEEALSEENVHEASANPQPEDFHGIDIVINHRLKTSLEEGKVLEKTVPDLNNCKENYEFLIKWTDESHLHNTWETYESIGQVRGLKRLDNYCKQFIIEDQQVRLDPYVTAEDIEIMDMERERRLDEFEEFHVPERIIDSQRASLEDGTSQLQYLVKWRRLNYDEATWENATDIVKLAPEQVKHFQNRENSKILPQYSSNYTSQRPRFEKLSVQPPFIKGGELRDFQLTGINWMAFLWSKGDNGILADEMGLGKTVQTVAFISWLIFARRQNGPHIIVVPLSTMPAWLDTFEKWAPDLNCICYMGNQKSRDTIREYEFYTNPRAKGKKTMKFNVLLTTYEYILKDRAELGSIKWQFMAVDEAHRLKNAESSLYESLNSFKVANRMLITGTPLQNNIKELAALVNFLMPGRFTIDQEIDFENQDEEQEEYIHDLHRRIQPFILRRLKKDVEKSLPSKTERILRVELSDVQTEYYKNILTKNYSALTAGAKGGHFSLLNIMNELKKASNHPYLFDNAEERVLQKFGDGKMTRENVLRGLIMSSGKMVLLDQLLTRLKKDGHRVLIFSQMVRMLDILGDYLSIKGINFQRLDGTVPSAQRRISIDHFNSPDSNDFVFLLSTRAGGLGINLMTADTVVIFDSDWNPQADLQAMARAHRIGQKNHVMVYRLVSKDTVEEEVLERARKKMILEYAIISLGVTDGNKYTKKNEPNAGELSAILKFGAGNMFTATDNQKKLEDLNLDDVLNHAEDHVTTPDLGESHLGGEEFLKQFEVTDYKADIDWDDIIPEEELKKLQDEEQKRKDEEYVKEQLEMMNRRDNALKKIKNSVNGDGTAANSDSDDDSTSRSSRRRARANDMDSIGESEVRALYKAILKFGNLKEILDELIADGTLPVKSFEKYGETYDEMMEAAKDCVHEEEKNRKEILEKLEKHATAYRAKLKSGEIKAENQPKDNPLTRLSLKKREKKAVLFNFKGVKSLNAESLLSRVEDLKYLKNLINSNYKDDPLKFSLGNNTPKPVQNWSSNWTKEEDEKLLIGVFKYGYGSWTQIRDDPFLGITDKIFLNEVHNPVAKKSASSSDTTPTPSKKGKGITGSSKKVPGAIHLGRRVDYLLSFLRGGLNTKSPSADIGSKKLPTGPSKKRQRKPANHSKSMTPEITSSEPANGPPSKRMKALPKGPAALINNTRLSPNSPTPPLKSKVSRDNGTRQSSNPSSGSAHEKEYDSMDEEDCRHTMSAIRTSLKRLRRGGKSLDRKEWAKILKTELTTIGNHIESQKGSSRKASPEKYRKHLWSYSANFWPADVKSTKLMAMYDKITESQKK
# Percent Effect listing for each entry below
Report the value in % with no unit label.

Here is how some molecules turned out for Percent Effect.
COc1ccc(OCc2cc(C(=O)N3CCN[C@H](C)C3)n[nH]2)c(Cl)c1; -3.55
CCn1c(C)nnc1CN(C)C1CCN(Cc2nccn2C)C1 (centres undefined); -3.99
CC(=O)N1CCC(Oc2ccc(Cl)cn2)CC1; -4.92
COc1ccc(-c2csc(N)c2C#N)cc1OC; -1.98
FC(F)(F)C1CCCn2c(CNCc3ccsc3)nnc21 (centres undefined); -3.87
N#Cc1ccc(OCCCN2CCc3cncnc3C2)cc1; -4.55
CCc1cc(NC2CCN(S(C)(=O)=O)CC2)n2nc(C)c(C)c2n1; -1.42
CS(=O)(=O)Cc1ccc(CNC(=O)c2cccnc2O)cc1; -7.98

### Prompt Find the measured Percent Effect of CN(C)S(=O)(=O)N1CC[C@@H]2CN(Cc3cnn(C)c3)C[C@@H]2C1 and report it.
### Response -3.27

### Prompt Find the measured Percent Effect of CC(O)CN1CCN(Cc2nnc(C3CC3)o2)CC1 (centres undefined) and report it.
### Response -4.52

---

# Percent Effect listing for each entry below
organism: Homo sapiens; assay: To identify inhibition of the IFN signalling (Jak-Stat) pathway via expression of an eGFP reporter gene under the control of an IFN-stimulated response element (ISRE) containing MxA promoter.; type: functional; set-up: scale not given: direction of the effect not stated beside the values; conditions: 30 µM
Report the value in % with no unit label.

O=C(CC1CC1)N1CCC2(CC1)CN(c1ncccn1)CCO2; 9.78

### Prompt Find the measured Percent Effect of O=C1COc2cc(C(=O)NS(=O)(=O)c3ccccc3F)ccc2N1 and report it.
### Response -3.9

### Prompt Find the measured Percent Effect of c1ccc2sc(CN3CCOC(Cn4cncn4)C3)nc2c1 (stereo not drawn) and report it.
### Response 42.5

---

# Percent Effect listing for each entry below
tested on: Trypanosoma cruzi; assay: Trypanosoma cruzi phosphomannomutase and mannose-1-phosphate guanylyltransferase assay; assay type: functional; parameters: scale not given: direction of the effect not stated beside the values; conditions: 10 µM
Report the value in % with no unit label.

Here is how some compounds turned out for Percent Effect.
CC(C)Oc1cccc(CNC(=O)NC(C)(C(=O)O)c2ccco2)c1 (stereo not drawn); 3.08
O=C(O)c1c[nH]c2cc(NS(=O)(=O)c3cccc(Cl)c3F)ccc12; 0.562
CCN1CCC(c2nc3ccc(NC(C)C)cn3n2)CC1; 7.62

### Prompt Find the measured Percent Effect of O=C(c1ccco1)N1CCCC(c2cc(C(F)F)n3ncnc3n2)C1 (stereo not drawn) and report it.
### Response -8.5

### Prompt Find the measured Percent Effect of CC(CNC(=O)c1cccnc1Oc1cccnc1)N(C)C (stereo not drawn) and report it.
### Response 6.56

### Prompt Find the measured Percent Effect of Cc1cccc(C(=O)NC2CCN(c3cnn(C)c3)C2=O)n1 (stereo not drawn) and report it.
### Response 7.33

### Prompt Find the measured Percent Effect of CC(NC(=O)NCCNc1cnccn1)c1cccs1 (stereo not drawn) and report it.
### Response 2.81

### Prompt Find the measured Percent Effect of CCc1noc(C(C)N2CCC(NC(=O)c3ccc(C)s3)CC2)n1 (stereo not drawn) and report it.
### Response 2.65

---

test system: Trypanosoma cruzi; experiment: Trypanosoma cruzi phosphomannomutase and mannose-1-phosphate guanylyltransferase assay; format: functional; design: scale not given: direction of the effect not stated beside the values; details: 10 µM
property name: Percent Effect
Report as: number unit

Here is how some compounds turned out for Percent Effect.
CC(C(=O)NCc1ccnc(N(C)C)c1)n1cncn1 (stereo not drawn); 8.88%
Cc1ccc(CNCc2ccc(-n3nc(C)cc3C)nc2)cc1; 1.5%

Could you now look at the following compound, please?
### Prompt Find the measured Percent Effect of CCn1nc(C)c(CNC(=O)c2cn(CCC3CCCCN3)nn2)c1C (stereo not drawn) and report it.
### Response 1.27%

---

system: Trypanosoma cruzi; experiment: Trypanosoma cruzi phosphomannomutase and mannose-1-phosphate guanylyltransferase assay; assay type: functional; set-up: scale not given: direction of the effect not stated beside the values; conditions: 10 µM
property name: Percent Effect

CCc1nc(CN2CCCN(Cc3cnn(C)c3)CC2)no1; -2.35%
Cc1noc(C)c1-c1cncc(C2CCCN2Cc2cncnc2)n1 (configuration not stated); -3.54%

### Prompt Param request: Percent Effect | system Trypanosoma cruzi | item O=C(CCNC(=O)c1ccoc1)NCc1ccccc1F
### Response -2.45%

### Prompt Param request: Percent Effect | system Trypanosoma cruzi | item O=C1N(c2ccc(Br)cc2)Cc2nc(=O)[nH]n21
### Response 1.38%

### Prompt Param request: Percent Effect | system Trypanosoma cruzi | item CN(C)CCOCC1CN(C(=O)[C@H]2CCCO2)Cc2ccnn2C1 (some centres not stated)
### Response -1.35%

### Prompt Param request: Percent Effect | system Trypanosoma cruzi | item COc1cccc(COCC(=O)N2CCCC(c3nncn3C)C2)c1 (configuration not stated)
### Response 3.11%

### Prompt Param request: Percent Effect | system Trypanosoma cruzi | item CC(=O)N1CCCC1c1nnc2n1CCCCC2 (configuration not stated)
### Response -0.195%

### Prompt Param request: Percent Effect | system Trypanosoma cruzi | item CCc1csc(C2CCCN(C(=O)c3c[nH]c(C)n3)C2)n1 (configuration not stated)
### Response 6.18%

### Prompt Param request: Percent Effect | system Trypanosoma cruzi | item CC(NC(=O)NCc1cccc(N2CCCC2=O)c1)c1ccccc1 (configuration not stated)
### Response 3.23%

### Prompt Param request: Percent Effect | system Trypanosoma cruzi | item O=C(c1ccnnc1)N1C[C@@H](OCC2CCCC2)[C@H]2OCCC[C@H]21
### Response -1.95%

### Prompt Param request: Percent Effect | system Trypanosoma cruzi | item Cc1nc(C)n(CC2CCCCN2CC(=O)N(C)Cc2ccco2)n1 (configuration not stated)
### Response 2.45%

### Prompt Param request: Percent Effect | system Trypanosoma cruzi | item Cc1ccc(C(=O)Nc2cc(C(C)C)n[nH]2)cn1
### Response -5.06%

### Prompt Param request: Percent Effect | system Trypanosoma cruzi | item N#CC1(C(=O)N2CCN(c3nccs3)CC2)CCCCC1
### Response -2.26%

### Prompt Param request: Percent Effect | system Trypanosoma cruzi | item COCCn1c2c(ccc1=O)CC(NS(C)(=O)=O)CC2 (configuration not stated)
### Response -7.68%

### Prompt Param request: Percent Effect | system Trypanosoma cruzi | item CN(C)C(=O)N1C[C@H]2CN(Cc3cccc(F)c3)C(=O)[C@H]2C1
### Response -4.2%

### Prompt Param request: Percent Effect | system Trypanosoma cruzi | item COc1ccc(S(=O)(=O)N2CCC(S(C)(=O)=O)CC2)cc1C
### Response 4.04%

### Prompt Param request: Percent Effect | system Trypanosoma cruzi | item Cc1ccc(CN2CC[C@H]3OCC[C@@H](c4nc(C)no4)[C@H]3C2)cc1
### Response 7.14%

### Prompt Param request: Percent Effect | system Trypanosoma cruzi | item Cc1cc(C2CCCN2C(=O)NCc2cccc(F)c2)on1 (configuration not stated)
### Response -1.07%

### Prompt Param request: Percent Effect | system Trypanosoma cruzi | item Fc1ccc(-c2nnc(CN3CCCC3Cn3cncn3)o2)cc1 (configuration not stated)
### Response 6.93%

### Prompt Param request: Percent Effect | system Trypanosoma cruzi | item CCC(=O)N1CC[C@@H](c2ccc3ccccc3c2)[C@H](O)C1
### Response 5.94%

---

target: Proteasome subunit beta (Trypanosoma cruzi) (UniProt O96673); experiment: Trypanosoma cruzi proteasome chymotrypsin-like activity (TcProtChymo) assay.; format: functional; parameters: scale not given: in the data most compounds retested in dose-response had high values; settings: 9.37 µM
Sequence (O96673 as listed by the source): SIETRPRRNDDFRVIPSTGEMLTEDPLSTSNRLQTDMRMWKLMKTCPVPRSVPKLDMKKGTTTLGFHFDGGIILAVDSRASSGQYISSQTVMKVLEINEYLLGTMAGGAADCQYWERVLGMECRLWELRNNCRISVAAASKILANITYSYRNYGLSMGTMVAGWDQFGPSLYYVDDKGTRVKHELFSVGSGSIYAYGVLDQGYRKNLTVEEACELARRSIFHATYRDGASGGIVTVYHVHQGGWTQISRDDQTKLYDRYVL
# Percent Effect listing for each entry below
Report as: number unit

Here is how some compounds turned out for Percent Effect.
CC(C)c1nccn1C1CCCN(C(=O)c2ccc3[nH]nnc3c2)C1 (stereo not given); 19%
Cn1ccnc1CN1CCC2(CC1)CC(Oc1cccnc1)C2; 1.88%
COc1c(CNCCNC(=O)c2ccc(C)cc2)c(C)nn1C; 5.57%
O=C(CCN1CCCC1c1cccs1)N1CCc2sccc2C1 (stereo not given); 3.96%
CN(CC(=O)N1CCN(c2ncccn2)CC1)c1ccc(Cl)cn1; 9.83%
CN(CCCC#N)C1CCCN(Cc2noc(C3CC3)n2)C1 (stereo not given); 12.8%
Cc1ccc(NS(=O)(=O)c2cc3c(c(C(=O)O)c2)OCCO3)c(F)c1; 11.2%
N#Cc1ccc(F)c(CN2CCCC2Cn2cccn2)c1 (stereo not given); -0.359%

### Prompt Find the measured Percent Effect of O=C(c1ccccn1)N1CCc2c(nc(N3CCCC3)[nH]c2=O)C1 and report it.
### Response 7.64%

### Prompt Find the measured Percent Effect of O=C(NCCOc1ccc2c(c1)OCO2)C1CC(=O)N(CC2CC2)C1 (stereo not given) and report it.
### Response 9.56%
